target or system: T1, mouse GIP receptor (mGIPr) (Mus musculus, UniProt Q0P543)
T1 construct: expressed in transfected cells; host or cells: HEK293s or CHO cells
T1 sequence (Q0P543 19-460): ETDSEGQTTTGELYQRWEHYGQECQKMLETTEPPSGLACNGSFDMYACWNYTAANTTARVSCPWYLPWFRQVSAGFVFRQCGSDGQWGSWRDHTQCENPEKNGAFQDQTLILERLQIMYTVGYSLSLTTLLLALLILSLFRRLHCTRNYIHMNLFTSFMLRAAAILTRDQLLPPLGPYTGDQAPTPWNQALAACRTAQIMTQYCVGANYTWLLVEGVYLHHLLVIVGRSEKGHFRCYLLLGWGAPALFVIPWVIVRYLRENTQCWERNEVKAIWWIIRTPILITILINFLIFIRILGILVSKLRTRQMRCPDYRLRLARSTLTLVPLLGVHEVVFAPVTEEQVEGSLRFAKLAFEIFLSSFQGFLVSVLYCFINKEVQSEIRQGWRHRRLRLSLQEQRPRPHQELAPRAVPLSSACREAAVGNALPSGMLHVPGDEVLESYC
procedure text: BSA-cAMP assay, cells expressing mouse GIP receptor
Type: cell-based
experimental conditions: Batch 1; BSA-cAMP assay; read-out: mGIPr cAMP activity EC50
pEC50: −log10 of the molar value.
recorded metric: pEC50

Use these answered entries as a reference point.
IP367 (protein) YSEGTFTSDYRILKERQAIDEFIAWLLKGGAAAGGSGSTASSGSGSATGGGGAATHTCPPC : 10.51
IP315 (protein) YSEGTFISDYSSYLERQAIDEFIAWLLKGGAAAGGSGSTASSGSGSATGGGGAATHTCPPC : 9.44
IP301 (protein) YSEGTFTSDVSSYLEREAIDEFIAWLLKGGAAAGGSGSTASSGSGSATGGGGAATHTCPPC : 7.66
IP307 (protein) YSEGTFTSDVSSYMERQAIDEFIAWLLKQGAAAGGSGSTASSGSGSATGGGGAATHTCPPC : 7.51

I = IP366 (protein) YSEGTFTSDYRMLKERQAIDEFIAWLLKGGAAAGGSGSTASSGSGSATGGGGAATHTCPPC
II = IP364 (protein) YSEGTFTSDFSKLLERQAIDEFIAWLLKGGAAAGGSGSTASSGSGSATGGGGAATHTCPPC
III = IP312 (protein) YSEGTFISDVSSYMERQAIDEFIAWLLKGGAAAGGSGSTASSGSGSATGGGGAATHTCPPC
IV = IP401 (protein) YSEGTHTSDLSKLLERQAIDEFIAWLLKGGAAAGGSGSTASSGSGSATGGGGAATHTCPPC
Order the items by recorded pEC50; the first position goes to the largest value. Note for the reader: the ranking is given by listing the labels in the order requested.
I, II, IV, III
(I: 10.25, II: 9.30, IV: 8.44, III: 7.80)

I = IP365 (protein) YSEGMHTSDFSKLLERQAIDEFIAWLLKGGAAAGGSGSTASSGSGSATGGGGAATHTCPPC
II = IP310 (protein) YSEGTFTSDVSSYMERQAIDEFIAWLLKGKAAAGGSGSTASSGSGSATGGGGAATHTCPPC
Of I versus II , which is the one with smaller reported pEC50? Response format: the label of the selected entry.
II
(II: 7.51, I: 7.77)
